# credit: patent US20250074901A1

- tgt: UniProt O43526
- test.name: Activation of Kv7.2 (in vitro assay, concentration response curve)
- condition.notes: activation of Kv7.2
Give measured log10 EC50 for each item. Keep answers brief.
Scale type: logarithmic (base 10). Underlying EC50 unit: µM.

Item: O=C(NCc1ccnc(OC(F)F)c1)NCC1CC(C(F)(F)F)C1 (centres unmarked) [Example 62] Test system: UniProt O43526 Read-out: log10 EC50 Value: ?
-0.12

Item: O=C(NCc1ccnc(OC(F)F)c1)N[C@H]1[C@@H](O)[C@H]2CCC[C@H]21 (racemic) [Example 111] Test system: UniProt O43526 Read-out: log10 EC50 Value: ?
0.44

Item: O=C(NCc1ccnc(OCC(F)(F)F)c1)Nc1cc(F)ccc1F [Example 245] Test system: UniProt O43526 Read-out: log10 EC50 Value: ?
-1.30

Item: COC(CNC(=O)NCc1ccnc(OC(F)F)c1)C(F)(F)F (centres unmarked) [Example 119] Test system: UniProt O43526 Read-out: log10 EC50 Value: ?
0.20

Item: O=C(NCc1ccnc(OC(F)F)c1)N[C@H]1CCCC(F)(F)C1 [Example 140] Test system: UniProt O43526 Read-out: log10 EC50 Value: ?
-1.00

====

Give measured EC50 for each item. Keep answers brief.
- tgt: Kv7.2 (Homo sapiens, UniProt O43526)
- test.name: Activation of Kv7.2 (in vitro assay, concentration response curve)
- condition.notes: activation of Kv7.2
Just the number in nM, nothing appended.

Item: O=C(NCc1ccnc(OC(F)F)c1)NCC(O)C12CC(F)(C1)C2 (stereo not drawn) Test system: Kv7.2 (Homo sapiens, UniProt O43526) Read-out: EC50 Value: ?
980

Item: O=C(NCc1ccnc(OC(F)F)c1)NC(C(F)(F)F)C(F)(F)F Test system: Kv7.2 (Homo sapiens, UniProt O43526) Read-out: EC50 Value: ?
260

Item: O=C(NCc1ccnc(OC(F)F)c1)N[C@H]1CCC(F)(F)C1 Test system: Kv7.2 (Homo sapiens, UniProt O43526) Read-out: EC50 Value: ?
320

Item: CC(F)(F)c1cc(CNC(=O)NC23CC(F)(C2)C3)ccn1 Test system: Kv7.2 (Homo sapiens, UniProt O43526) Read-out: EC50 Value: ?
4930

Item: O=C(NCc1ccnc(OC(F)F)c1)N[C@H](C1CC1)C(F)(F)F Test system: Kv7.2 (Homo sapiens, UniProt O43526) Read-out: EC50 Value: ?
550

Item: O=C(NCc1ccnc(OC(F)F)n1)N[C@H]1C[C@H](C(F)(F)F)C1 Test system: Kv7.2 (Homo sapiens, UniProt O43526) Read-out: EC50 Value: ?
760

Item: O=C(NCc1ccnc(OC(F)F)c1)Nc1cc(F)ccc1F Test system: Kv7.2 (Homo sapiens, UniProt O43526) Read-out: EC50 Value: ?
250

Item: O=C(NCc1ccnc(OC(F)F)c1)N[C@H]1CC[C@@H](C(F)(F)F)CC1 Test system: Kv7.2 (Homo sapiens, UniProt O43526) Read-out: EC50 Value: ?
320

Item: O=C(NCc1ccnc(OC(F)F)c1)N[C@H]1C[C@@H]2[C@H](C1)C2(F)F Test system: Kv7.2 (Homo sapiens, UniProt O43526) Read-out: EC50 Value: ?
130
